Exercise: for every item that follows, state its recorded pIC50.
- System: platelets
- EXPERIMENTAL PROTOCOL: Platelets aggregation inhibitory activity (method of Born et al.), ADP-induced, human PRP (Pharmacological Test I)
- Type: cell-based, man
- EXPERIMENTAL PARAMETERS: Homo sapiens, Platelet, 7.5 μM ADP, 37° C., read-out: IC50 ADP (50% platelets aggregation inhibition)
When answering, recall that pIC50 equals minus log10 of the concentration in mol/L, and write that number alone.

pIC50 lookup needed for `O=C(CN(CC1CCCCCCC1)S(=O)(=O)CCCOc1ccc2[nH]c(=O)ccc2c1)N1CCC(O)CC1` , thanks.
5.21

`CN(C1CCCCC1)S(=O)(=O)CCCCOc1ccc2[nH]c(=O)ccc2c1` ?
5.68

Another: `O=C1CC[C@@H](CO)N1CCN(CCCCCOc1ccc2[nH]c(=O)ccc2c1)Cc1ccccc1`
5.43

Now the compound `CCN(CC)C(=O)CN(CCCCOc1ccc2[nH]c(=O)ccc2c1)CC1CCCCCCC1`
4.96

Here is the next compound: `O=C(O)CN(CCCCOc1ccc2[nH]c(=O)ccc2c1)CC1CCCCCCC1`
5.05

Would you kindly repeat that for `O=c1ccc2cc(OCCCCN(Cc3ccccc3)S(=O)(=O)CCN3CCC(O)CC3)ccc2[nH]1` ?
4.70

Now this one: `O=c1ccc2cc(OCCCS(=O)(=O)N(CCN3CCC(O)CC3)C3CCCCC3)ccc2[nH]1`
5.10

Request: `CN(C(=O)NCCCOc1ccc2[nH]c(=O)ccc2c1)C1CCCCC1`
5.54

Next: `O=c1ccc2cc(OCCCCCN(CCO)Cc3ccccc3)ccc2[nH]1`
5.35

Follow-up entry: `COc1ccc(CN(CCCCCOc2ccc3[nH]c(=O)ccc3c2)CCN2CCC(O)CC2)cc1OC`
4.96

Continue with `O=c1ccc2cc(OCCCCCN(CCN3CCC(O)CC3)Cc3cccs3)ccc2[nH]1`
4.89

Subsequent entry: O=c1ccc2cc(OCCCCN(CCN3CCC(O)CC3)CC3CCCCO3)ccc2[nH]1 (centres unmarked)
4.85

Please do the same for `O=c1ccc2cc(OCCCCCN(CCn3ccnc3)Cc3ccccc3)ccc2[nH]1` as well.
4.82

Okay, and `O=c1ccc2cc(OCCCCS(=O)(=O)N(CCN3CCCS3(=O)=O)Cc3ccccc3)ccc2[nH]1` ?
5.66

Now consider `O=c1ccc2cc(OCCCCN(CCN3CCC[C@H]3CO)CC3CCCCCCC3)ccc2[nH]1` .
5.16

How about `O=c1ccc2cc(OCCCS(=O)(=O)N(CCN3C[C@H](O)[C@@H](O)C3)CC3CCCCCCC3)ccc2[nH]1` ?
5.02

Next compound up: `CN(C)C1CCN(CCN(CCCCOc2ccc3[nH]c(=O)ccc3c2)CC2CCCCCCC2)CC1`
4.70

Also need O=c1ccc2cc(OCCCS(=O)(=O)N(CCN3CCC(O)CC3)CC3CCCCO3)ccc2[nH]1 (centres unmarked) , thanks.
5.02

`O=c1ccc2cc(OCCCCS(=O)(=O)N(CCN3CCC(O)CC3)CC3CCCCCCC3)ccc2[nH]1` , same question.
5.89

Again, but for O=c1ccc2cc(OCCCCN(CC(O)CO)CC3CCCCC3)ccc2[nH]1 (centres unmarked)
4.82

Subsequent entry: `O=c1ccc2cc(OCCCCCN(CCN3CCC(O)CC3)Cc3ccccc3)ccc2[nH]1`
4.92

Can you handle `O=c1ccc2cc(OCCCS(=O)(=O)N(CCN3CCC4(CC3)OCCO4)CC3CCCCCCC3)ccc2[nH]1` next?
5.54

// next record `O=c1ccc2cc(OCCCCS(=O)(=O)N(CCN3CCC[C@H]3CO)CC3CCCCC3)ccc2[nH]1`
5.46

// same read-out, input: `CCOC(=O)CN(CC1CCCCCCC1)S(=O)(=O)CCCOc1ccc2[nH]c(=O)ccc2c1`
5.19

`O=c1ccc2cc(OCCCCS(=O)(=O)N(CCN3CCC(O)CC3)Cc3cccs3)ccc2[nH]1` , same question.
5.28

Param item: `CN(C)C(=O)[C@@H]1CCCN1CCN(CCCCCOc1ccc2[nH]c(=O)ccc2c1)Cc1ccccc1`
4.96

Likewise for `O=c1ccc2cc(OCCCCCN(CCN3CCC(O)CC3)Cc3ccc(Cl)c(Cl)c3)ccc2[nH]1` ?
4.96

Please give the result for `CC(=O)NCCN(CC1CCCCCCC1)S(=O)(=O)CCCOc1ccc2[nH]c(=O)ccc2c1` too.
5.66

Entry `O=c1ccc2cc(OCCCCN(Cc3ccccc3)S(=O)(=O)CCCn3ccnc3)ccc2[nH]1` please
4.66

Queued: `O=C(CN(CCCCCOc1ccc2[nH]c(=O)ccc2c1)Cc1ccccc1)N1CCC(O)CC1`
5.70

Then what about the compound `O=c1ccc2cc(OCCCS(=O)(=O)N(CCN3CCC(O)CC3)C3CCCCCCC3)ccc2[nH]1` ?
5.68

And `CCN1C[C@H](O)C[C@H]1CN(CC1CCCCC1)S(=O)(=O)CCCCOc1ccc2[nH]c(=O)ccc2c1` ?
5.85

---

- Tested on: mongrel dogs
- EXPERIMENTAL PARAMETERS: dog, in vivo, 300 mg/kg
For each entry below, report its Maximum change in heart rate value.
Provide a numeric answer, followed by its unit.

I'd like to know its Maximum change in heart rate. The molecule in question is `O=C(CN(CCCCOc1ccc2[nH]c(=O)ccc2c1)CC1CCCCCCC1)N1CCC(O)CC1`
24 beats/minute

Check `O=c1ccc2cc(OCCCCN(CCN3CCC(O)CC3)Cc3ccccc3)ccc2[nH]1` too.
0 beats/minute

What would you report for `O=c1ccc2cc(OCCCCN(CCN3CCC(O)CC3)c3ccccc3)ccc2[nH]1` ?
7 beats/minute

Then this molecule: `O=c1ccc2cc(OCCCCN(CCN3CCC(O)CC3)CC3CCCCCCC3)ccc2[nH]1`
1 beats/minute

`CCN(CC)CCN(CCCCOc1ccc2[nH]c(=O)ccc2c1)CC1CCCCCC1` ?
2 beats/minute

Another molecule: `O=c1ccc2cc(OCCCS(=O)(=O)N(CCN3CCC(O)CC3)Cc3ccccc3)ccc2[nH]1`
9 beats/minute

Try the molecule `O=c1ccc2cc(OCCCCN(CCN3CCC(O)CC3)CC3CCCCC3)ccc2[nH]1`
-2 beats/minute

Can you handle `O=c1ccc2cc(OCCCS(=O)(=O)N(CCN3CCC(O)CC3)C3CCCCCCC3)ccc2[nH]1` next?
13 beats/minute

What do you get for `CC(=O)NCCN(CCCCOc1ccc2[nH]c(=O)ccc2c1)CC1CCCCCCC1` ?
17 beats/minute

Try O=c1ccc2cc(OCCCS(=O)(=O)N(CC(O)CO)CC3CCCCC3)ccc2[nH]1 (centres unmarked) next.
16 beats/minute

Further, for O=c1ccc2cc(OCCCCN(CC(O)CO)CC3CCCCC3)ccc2[nH]1 (centres unmarked) ?
30 beats/minute

---

- System: platelets
- EXPERIMENTAL PROTOCOL: Platelets aggregation inhibitory activity (method of Born et al.), ADP-induced, human PRP (Pharmacological Test I)
- Assay type: cell-based, man
- EXPERIMENTAL PARAMETERS: Homo sapiens, Platelet, 7.5 μM ADP, 37° C., read-out: IC50 ADP (50% platelets aggregation inhibition)
So I've got a bunch of compounds here, and I need their pIC50 values.
// field semantics: pIC50 = negative decimal log of concentration (mol/L)

What value of measured pIC50 is listed for O=c1ccc2cc(OCCCCS(=O)(=O)N(CCNCCO)CC3CCCCCCC3)ccc2[nH]1 [Example 108] ?
5.54

Next compound: O=c1ccc2cc(OCCCNC(=S)N(CCN3CCC(O)CC3)CC3CCCCCCC3)ccc2[nH]1 [Example 132]
5.62

Now this one: O=C(NCCCOc1ccc2[nH]c(=O)ccc2c1)N(CCN1CCC(O)CC1)CC1CCCCCCC1 [Example 131]
5.62

Can you handle O=c1ccc2cc(OCCCCN(Cc3ccccc3)S(=O)(=O)CCCn3cncn3)ccc2[nH]1 [Example 123] next?
4.77

---

Exercise: for every item that follows, state its recorded pIC50.
- TESTED SYSTEM: cyclic AMP phosphodiesterase (Homo sapiens, UniProt Q14432)
- Construct: the resulting supernatant liquid was used as a crude enzyme solution
- Sequence (Q14432 whole entry): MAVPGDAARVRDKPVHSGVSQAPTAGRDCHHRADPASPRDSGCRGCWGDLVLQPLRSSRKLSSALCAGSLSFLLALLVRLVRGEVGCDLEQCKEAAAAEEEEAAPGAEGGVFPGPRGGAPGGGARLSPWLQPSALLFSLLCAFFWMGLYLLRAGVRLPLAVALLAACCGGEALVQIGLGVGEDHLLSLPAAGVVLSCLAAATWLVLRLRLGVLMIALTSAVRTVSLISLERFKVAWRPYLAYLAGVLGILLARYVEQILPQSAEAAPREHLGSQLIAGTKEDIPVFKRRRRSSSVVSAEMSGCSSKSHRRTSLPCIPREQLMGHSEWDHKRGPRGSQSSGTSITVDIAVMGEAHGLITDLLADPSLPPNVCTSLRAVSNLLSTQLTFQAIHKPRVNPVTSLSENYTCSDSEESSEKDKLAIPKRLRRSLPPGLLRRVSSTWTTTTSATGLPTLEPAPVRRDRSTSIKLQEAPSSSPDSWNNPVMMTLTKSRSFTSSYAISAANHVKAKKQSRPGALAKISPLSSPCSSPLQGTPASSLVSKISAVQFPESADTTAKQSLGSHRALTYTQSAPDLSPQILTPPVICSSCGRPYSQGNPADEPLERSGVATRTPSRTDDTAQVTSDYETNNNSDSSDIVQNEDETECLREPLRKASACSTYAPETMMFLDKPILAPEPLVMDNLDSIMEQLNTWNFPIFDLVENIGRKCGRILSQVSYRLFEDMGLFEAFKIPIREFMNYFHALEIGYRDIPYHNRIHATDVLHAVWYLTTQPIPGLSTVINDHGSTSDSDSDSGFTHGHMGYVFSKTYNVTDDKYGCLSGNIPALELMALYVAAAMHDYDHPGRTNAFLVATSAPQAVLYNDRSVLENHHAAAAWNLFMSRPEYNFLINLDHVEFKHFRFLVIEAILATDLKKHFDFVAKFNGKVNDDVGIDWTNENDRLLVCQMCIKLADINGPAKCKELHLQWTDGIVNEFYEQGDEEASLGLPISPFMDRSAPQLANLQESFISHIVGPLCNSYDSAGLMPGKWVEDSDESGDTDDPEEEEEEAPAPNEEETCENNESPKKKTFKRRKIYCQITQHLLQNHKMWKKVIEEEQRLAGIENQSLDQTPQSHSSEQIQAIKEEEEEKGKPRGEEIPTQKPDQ
- EXPERIMENTAL PROTOCOL: Cyclic AMP phosphodiesterase inhibitory activity, enzyme from human platelets (Pharmacological Test IV)
- EXPERIMENTAL PARAMETERS: 0.4 μM cyclic AMP substrate, 30° C., 20 minutes, human platelet enzyme; read-out: IC50 (50% phosphodiesterase inhibition concentration)
pIC50: −log10 of the molar value.

Name the reported pIC50 value associated with the compound `CN(C(=S)CCCOc1ccc2[nH]c(=O)ccc2c1)C1CCCCC1`
5.84

Okay, and `O=c1ccc2cc(OCCCCS(=O)(=O)N(CCN3CCC(O)CC3)Cc3ccccc3Cl)ccc2[nH]1` ?
> 7.00

How about this compound: `O=c1ccc2cc(OCCCCN(CCN3CCC(O)CC3)Cc3ccccc3)ccc2[nH]1`
6.32

Cool, now `O=c1ccc2ccc(OCCCCN(CCN3CCC(O)CC3)CC3CCCCCCC3)cc2[nH]1`
6.31

Try this compound too: `O=c1ccc2cc(OCCCS(=O)(=O)N(CCN3CCC(O)CC3)C3CCCCCCC3)ccc2[nH]1`
> 7.00

Also `O=c1ccc2cc(OCCCCS(=O)(=O)N(CCN3CCC(O)CC3)CC3CCCCCCC3)ccc2[nH]1` , if possible.
> 7.00

Another compound: `O=c1ccc2cc(OCCCCS(=O)(=O)N(CCN3CCC(O)CC3)Cc3ccccc3)ccc2[nH]1`
> 7.00

Okay, and `O=c1ccc2cc(OCCCCCN(Cc3ccccc3)Cc3ccccn3)ccc2[nH]1` ?
> 7.00
